- targetOrTestSystem: HDAC2 (Homo sapiens)
- Sequence (Q92769 whole entry): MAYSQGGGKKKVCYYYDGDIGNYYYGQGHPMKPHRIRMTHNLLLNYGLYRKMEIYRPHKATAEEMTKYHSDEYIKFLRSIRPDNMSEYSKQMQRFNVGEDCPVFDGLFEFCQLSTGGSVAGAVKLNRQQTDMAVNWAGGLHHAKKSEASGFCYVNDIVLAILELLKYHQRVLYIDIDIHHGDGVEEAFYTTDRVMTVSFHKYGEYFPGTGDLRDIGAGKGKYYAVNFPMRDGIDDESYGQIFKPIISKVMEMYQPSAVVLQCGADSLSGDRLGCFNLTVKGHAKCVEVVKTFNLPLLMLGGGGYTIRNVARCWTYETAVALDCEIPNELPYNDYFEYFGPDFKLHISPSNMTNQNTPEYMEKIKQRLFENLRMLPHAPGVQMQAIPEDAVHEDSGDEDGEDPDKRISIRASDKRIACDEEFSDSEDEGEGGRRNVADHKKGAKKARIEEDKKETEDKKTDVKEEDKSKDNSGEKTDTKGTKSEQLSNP
assayReadout: IC50
Please state the value followed by its unit.

*Q* Field request: IC50 | item: O=C(CCCCCCC(=O)N[c-]1cccc1)NO.[Fe+2].c1cc[cH-]c1 [Compound 7, N^1-Hydroxy-N^8-ferrocenyloctanediamide]
*A* 0.011 µM
